System: SUP-T1
TEST_NAME: In vitro long term proliferation (LTP), T-ALL cell line
Assay type: cell-based
CONDITION_SET: Homo sapiens, 336 h, 14 day LTP, absolute IC50, seeding density 200000, read-out: Compound A75 IC50

# COMPOUND_STRING, IC50
records = [
    ("CNC1=Nc2cc(C#CCN3CCCCC3)c(OC)cc2C12CCC2", "5 to 15 µM"),
]

Every entry's value here was drawn from patent US11672800B2.
